System: BDF1 mice, M5076 sarcoma s.c., survival/tumor T/C
Experiment: NCI In Vivo Anticancer Drug Screen. Data for tumor model Sarcoma M5076 (subcutaneous) in B6D2F1 (BDF1) mice
Settings: endpoint: median survival time; dose: 200.0 mg/kg/injection; schedule: Q01DX009 (ip); vehicle: saline with Tween-80; higher = longer survival
Results filed as inconclusive are left out.
Consider the following compounds; for each one, report its T/C.

COc1ccc(Cl)cc1NC(=O)NNC(=O)C(=O)Nc1ccc(F)cc1 : 113 % of control
COc1cccc(/C=N/NP(=S)(Oc2ccc(C(C)(C)C)cc2)Oc2ccc(C(C)(C)C)cc2)c1OC : 100 % of control
CCCCOc1ccc(-n2c(=O)[nH]c3ccccc3c2=O)cc1 : 101 % of control
O=C1/C(=C/c2cccc([N+](=O)[O-])c2)SC(=S)N1C1CC1 : 89 % of control
COc1ccc(/C=N/OC(=S)NC2CCCCC2)cc1OC : 92 % of control

Pending compound:
Lab note: BDF1 mice, M5076 sarcoma s.c., survival/tumor T/C assay, enter T/C for O=C1Nc2cnc(Cl)nc2Nc2ccccc21 here 95 % of control
